- target_of_assay: Ylr278c (UniProt Q05854)
- Sequence (Q05854 whole entry): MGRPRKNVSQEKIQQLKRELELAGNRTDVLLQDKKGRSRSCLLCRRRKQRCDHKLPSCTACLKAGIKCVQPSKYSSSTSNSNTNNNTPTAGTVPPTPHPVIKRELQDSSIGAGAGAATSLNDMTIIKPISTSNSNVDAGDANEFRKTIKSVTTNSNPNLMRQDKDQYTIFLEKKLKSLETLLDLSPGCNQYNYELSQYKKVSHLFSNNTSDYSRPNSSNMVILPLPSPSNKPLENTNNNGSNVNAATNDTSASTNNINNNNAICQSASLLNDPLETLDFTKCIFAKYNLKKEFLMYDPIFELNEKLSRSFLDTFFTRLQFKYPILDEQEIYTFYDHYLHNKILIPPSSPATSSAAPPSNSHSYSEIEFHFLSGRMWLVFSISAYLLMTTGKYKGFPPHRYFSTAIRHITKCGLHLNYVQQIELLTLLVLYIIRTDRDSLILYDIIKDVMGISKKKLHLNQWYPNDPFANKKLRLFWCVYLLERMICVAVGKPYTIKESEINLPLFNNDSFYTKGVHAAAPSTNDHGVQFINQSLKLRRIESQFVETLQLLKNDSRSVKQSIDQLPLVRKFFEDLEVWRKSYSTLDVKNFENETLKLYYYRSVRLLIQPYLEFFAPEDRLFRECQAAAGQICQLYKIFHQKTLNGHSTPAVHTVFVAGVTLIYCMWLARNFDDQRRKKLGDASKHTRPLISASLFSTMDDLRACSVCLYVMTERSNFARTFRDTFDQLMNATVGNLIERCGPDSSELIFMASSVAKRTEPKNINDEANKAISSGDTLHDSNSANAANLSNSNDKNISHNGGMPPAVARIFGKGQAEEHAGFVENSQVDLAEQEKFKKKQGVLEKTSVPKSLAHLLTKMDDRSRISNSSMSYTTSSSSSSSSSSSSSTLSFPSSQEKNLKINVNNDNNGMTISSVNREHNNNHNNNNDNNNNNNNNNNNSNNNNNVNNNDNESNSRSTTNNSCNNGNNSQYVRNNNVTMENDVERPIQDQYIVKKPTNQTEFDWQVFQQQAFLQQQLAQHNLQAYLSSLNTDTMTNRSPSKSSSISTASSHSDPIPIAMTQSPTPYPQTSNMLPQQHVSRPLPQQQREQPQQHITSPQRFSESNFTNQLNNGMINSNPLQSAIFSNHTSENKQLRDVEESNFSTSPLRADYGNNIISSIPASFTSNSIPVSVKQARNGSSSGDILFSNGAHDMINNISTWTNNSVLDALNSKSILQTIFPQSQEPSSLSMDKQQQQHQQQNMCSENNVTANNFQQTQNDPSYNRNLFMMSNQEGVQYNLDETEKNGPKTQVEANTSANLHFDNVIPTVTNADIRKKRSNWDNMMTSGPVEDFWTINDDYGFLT
- assay_text: PBM E-score (8-mer binding enrichment) (E-score (-0.5 to 0.5)); higher = stronger / more preferred TF binding
- assay_conditions: protein concentration: 200 nM; construct: GST-DNA-binding domain
In all, about 33,000 sequences were measured (“E-score (-0.5 to 0.5)”: median about -0.054, highest 2% from about 0.39 on). The entries come from a sample that favours the highest values as a whole.
Consider the reported PBM E-score of an entry and match it to a band in bottom bin = under 0.04, middle bin = from 0.04 up to 0.4, top bin = 0.4 and over

The following sequences have reported results that may help.
entry_sequence: GTGGACAA
class_label: middle bin
//
entry_sequence: CCGCGCAG
class_label: middle bin
//
entry_sequence: CCCATCTC
class_label: bottom bin
//
entry_sequence: CAGGTCAG
class_label: bottom bin
//
entry_sequence: AATCGAGA
class_label: bottom bin

*Q* Returns: class label. Input: CGCCGGTC
*A* middle bin

*Q* Returns: class label. Input: CAGCGGAC
*A* middle bin

*Q* Returns: class label. Input: CATCCATA
*A* bottom bin

*Q* Returns: class label. Input: AGTCCGGA
*A* top bin

*Q* Returns: class label. Input: CTACCGGA
*A* middle bin

*Q* Returns: class label. Input: CCCCTTAC
*A* bottom bin

*Q* Returns: class label. Input: GAGCCTAC
*A* bottom bin

*Q* Returns: class label. Input: ACGACAGA
*A* bottom bin

*Q* Returns: class label. Input: CAGACTGG
*A* bottom bin

*Q* Returns: class label. Input: ATTTTAAA
*A* middle bin

*Q* Returns: class label. Input: GGTCCGGA
*A* top bin

*Q* Returns: class label. Input: CGTCCGGA
*A* top bin

*Q* Returns: class label. Input: ACTGTTGC
*A* middle bin

*Q* Returns: class label. Input: GCCAACGA
*A* bottom bin

*Q* Returns: class label. Input: AACCGGTC
*A* middle bin
